- target of assay: Bromodomain adjacent to zinc finger domain protein 2B (Homo sapiens)
- measurement protocol: qHTS Assay for Inhibitors of BAZ2B; note: nearly all actives have a fitted effect of over 60% in size
- experimental conditions: AlphaScreen BAZ2B-H3K14Ac peptide displacement; series mostly up to 114 µM
Out of some 360,000 compounds screened, about 16,000 (4.4%) were called active. Roughly 9% stayed inconclusive and do not appear here. Calls come from the whole dose curve; as a rule, active = well fitted inhibition curve with a large enough effect; inconclusive = small, poorly fitted or top-dose-only effect; inactive = no such curve, though single readings can be large or run the other way. The sample holds actives, similar compounds and a random draw of the others, so the mix is not that of the screen.
# output must be one of True (active), False (inactive)

The following molecules have reported results that may help.
molecule: Cc1ccc(OCCCC(=O)N2CCOCC2)c(C)c1
label: False

molecule: c1ccc(-c2ccc(OCCN3CCOCC3)cc2)cc1
label: False

molecule: Cc1ccc(SCC(=O)Nc2ccc3oc(-c4ccccc4F)nc3c2)cc1
label: False

molecule: CCOc1ccc(N(CC)S(=O)(=O)N2CCCC(C(=O)NCc3ccc(Cl)cc3)C2)cc1 (stereo unspecified)
label: False

[ask] How was CCCS(=O)(=O)Nc1cccc(-c2cn3ccsc3n2)c1 classified in this test?
[reply] False

[ask] Moving on to CCc1ccc2oc(-c3ccc(C)c(NC(=O)/C=C/c4ccco4)c3)nc2c1
[reply] False
